# EXPERIMENTAL SYSTEM: Ba/F3 ERBB2 YVMA (Homo sapiens, UniProt P04626, DUP772-775, cells depend on it)
# Sequence (P04626 with tags, fused parts or gaps DUP772-775): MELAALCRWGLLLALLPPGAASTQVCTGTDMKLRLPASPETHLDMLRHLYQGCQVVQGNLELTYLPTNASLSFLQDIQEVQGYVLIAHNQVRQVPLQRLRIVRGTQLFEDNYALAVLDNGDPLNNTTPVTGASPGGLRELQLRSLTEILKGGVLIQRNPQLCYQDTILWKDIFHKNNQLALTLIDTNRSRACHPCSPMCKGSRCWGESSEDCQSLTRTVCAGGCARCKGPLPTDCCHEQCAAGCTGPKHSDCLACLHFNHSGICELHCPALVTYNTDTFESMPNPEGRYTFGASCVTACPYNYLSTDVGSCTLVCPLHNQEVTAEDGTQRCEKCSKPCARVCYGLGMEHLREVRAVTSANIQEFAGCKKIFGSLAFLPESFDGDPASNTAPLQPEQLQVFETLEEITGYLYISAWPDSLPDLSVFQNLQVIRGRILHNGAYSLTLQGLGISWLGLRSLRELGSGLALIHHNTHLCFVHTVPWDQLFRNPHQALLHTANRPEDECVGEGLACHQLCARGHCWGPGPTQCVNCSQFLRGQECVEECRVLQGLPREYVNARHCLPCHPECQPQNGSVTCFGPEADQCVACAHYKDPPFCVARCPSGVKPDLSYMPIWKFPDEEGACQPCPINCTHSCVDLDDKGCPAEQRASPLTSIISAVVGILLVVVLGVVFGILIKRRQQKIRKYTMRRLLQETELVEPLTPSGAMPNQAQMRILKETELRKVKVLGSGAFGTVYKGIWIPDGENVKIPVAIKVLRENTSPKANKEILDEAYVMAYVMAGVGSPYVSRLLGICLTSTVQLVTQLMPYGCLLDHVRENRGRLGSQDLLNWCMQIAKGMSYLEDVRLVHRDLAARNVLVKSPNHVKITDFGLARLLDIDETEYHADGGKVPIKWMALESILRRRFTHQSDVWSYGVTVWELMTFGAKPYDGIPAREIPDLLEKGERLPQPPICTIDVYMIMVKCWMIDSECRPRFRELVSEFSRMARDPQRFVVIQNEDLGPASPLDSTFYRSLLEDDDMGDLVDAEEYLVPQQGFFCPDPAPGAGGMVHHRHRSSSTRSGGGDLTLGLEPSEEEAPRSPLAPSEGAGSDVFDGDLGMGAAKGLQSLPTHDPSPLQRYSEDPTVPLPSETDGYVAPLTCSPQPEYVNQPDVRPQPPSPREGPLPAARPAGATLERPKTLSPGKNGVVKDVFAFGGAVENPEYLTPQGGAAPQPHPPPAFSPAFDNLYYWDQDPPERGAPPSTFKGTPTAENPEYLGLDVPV
# RUN DESCRIPTION: Cell viability assay (CellTiter Glo), Ba/F3 cells engineered to express ERBB2 YVMA
# Type: cell-based, mouse
# MEASUREMENT CONDITIONS: Ba/F3 cells expressing human ERBB2 YVMA mutant, 72 hours, read-out: Ba/F3 ERBB2 YVMA, IC50
# Description: Cells were treated with compounds, and cell viability was measured as a metric of kinase inhibition. BT-474, A431, MDA-MB-175VII, NCI-H1781, MCF7, and Ba/F3 cell lines were tested. […] Plates were placed in a 37° C., 5% CO2 incubator for 72 hours. […] 40 μl of CellTiter Glo reagent (Promega) was added to measure the relative level of metabolically active cells by quantifying intracellular ATP concentrations. Plates were incubated for 30 minutes at room temperature, and luminescence was measured. […]
Where a name gives a salt, the structure may show the parent alone.
Rule: GI50 below 80 nM gives Criterion met. Equal to or above 80 nM gives Criterion not met.

Below, 5 compounds whose answers are already recorded.
- COMPOUND: "Cc1cc(Nc2ncnc3ccc4c(c23)OC[C@@H]2CN(C(=O)/C=C/C3CN(C)C3)CCN42)ccc1Oc1ccn2ncnc2c1"
  EXPERIMENTAL SYSTEM: "Ba/F3 ERBB2 YVMA (Homo sapiens, UniProt P04626, DUP772-775, cells depend on it)"
  CATEGORY: "Criterion not met"
- COMPOUND: "Cc1cc(Nc2ncnc3ccc4c(c23)OC[C@@H]2CN(C(=O)/C=C/CN(C)C)CCN42)ccc1Oc1ccn2ncnc2c1 [Compound 19, formate]"
  EXPERIMENTAL SYSTEM: "Ba/F3 ERBB2 YVMA (Homo sapiens, UniProt P04626, DUP772-775, cells depend on it)"
  CATEGORY: "Criterion met"
- COMPOUND: "Cc1cc(Nc2ncnc3cc4c(nc23)N2CCN(C(=O)/C=C/CN(C)C)C[C@H]2CO4)ccc1Oc1ccc2c(c1)ncn2C"
  EXPERIMENTAL SYSTEM: "Ba/F3 ERBB2 YVMA (Homo sapiens, UniProt P04626, DUP772-775, cells depend on it)"
  CATEGORY: "Criterion met"
- COMPOUND: "Cc1cc(Nc2ncnc3ccc4c(c23)O[C@@H]2CCN(C)C[C@H]2N4C)ccc1Oc1ccc2c(c1)ncn2C (relative stereo)"
  EXPERIMENTAL SYSTEM: "Ba/F3 ERBB2 YVMA (Homo sapiens, UniProt P04626, DUP772-775, cells depend on it)"
  CATEGORY: "Criterion not met"
- COMPOUND: "Cc1cc(Nc2ncnc3ccc4c(c23)OC[C@H]2CN4CCN2C(=O)/C=C/C2CN(C)C2)ccc1Oc1ccn2ncnc2c1"
  EXPERIMENTAL SYSTEM: "Ba/F3 ERBB2 YVMA (Homo sapiens, UniProt P04626, DUP772-775, cells depend on it)"
  CATEGORY: "Criterion met"

Now examine the next entry.
Query string: Here's an entry: `CN(C)C/C=C/C(=O)N1CCN2c3ccc4ncnc(Nc5cc(F)c(Oc6ccn7ncnc7c6)cc5F)c4c3OC[C@@H]2C1` . Is its GI50 below 80 nM?
Result string: Criterion met

* * *

# EXPERIMENTAL SYSTEM: phosphorylated ERBB2 (pERBB2) (Homo sapiens)
# Construct: endogenous in cells
# Sequence (P04626 23-1255): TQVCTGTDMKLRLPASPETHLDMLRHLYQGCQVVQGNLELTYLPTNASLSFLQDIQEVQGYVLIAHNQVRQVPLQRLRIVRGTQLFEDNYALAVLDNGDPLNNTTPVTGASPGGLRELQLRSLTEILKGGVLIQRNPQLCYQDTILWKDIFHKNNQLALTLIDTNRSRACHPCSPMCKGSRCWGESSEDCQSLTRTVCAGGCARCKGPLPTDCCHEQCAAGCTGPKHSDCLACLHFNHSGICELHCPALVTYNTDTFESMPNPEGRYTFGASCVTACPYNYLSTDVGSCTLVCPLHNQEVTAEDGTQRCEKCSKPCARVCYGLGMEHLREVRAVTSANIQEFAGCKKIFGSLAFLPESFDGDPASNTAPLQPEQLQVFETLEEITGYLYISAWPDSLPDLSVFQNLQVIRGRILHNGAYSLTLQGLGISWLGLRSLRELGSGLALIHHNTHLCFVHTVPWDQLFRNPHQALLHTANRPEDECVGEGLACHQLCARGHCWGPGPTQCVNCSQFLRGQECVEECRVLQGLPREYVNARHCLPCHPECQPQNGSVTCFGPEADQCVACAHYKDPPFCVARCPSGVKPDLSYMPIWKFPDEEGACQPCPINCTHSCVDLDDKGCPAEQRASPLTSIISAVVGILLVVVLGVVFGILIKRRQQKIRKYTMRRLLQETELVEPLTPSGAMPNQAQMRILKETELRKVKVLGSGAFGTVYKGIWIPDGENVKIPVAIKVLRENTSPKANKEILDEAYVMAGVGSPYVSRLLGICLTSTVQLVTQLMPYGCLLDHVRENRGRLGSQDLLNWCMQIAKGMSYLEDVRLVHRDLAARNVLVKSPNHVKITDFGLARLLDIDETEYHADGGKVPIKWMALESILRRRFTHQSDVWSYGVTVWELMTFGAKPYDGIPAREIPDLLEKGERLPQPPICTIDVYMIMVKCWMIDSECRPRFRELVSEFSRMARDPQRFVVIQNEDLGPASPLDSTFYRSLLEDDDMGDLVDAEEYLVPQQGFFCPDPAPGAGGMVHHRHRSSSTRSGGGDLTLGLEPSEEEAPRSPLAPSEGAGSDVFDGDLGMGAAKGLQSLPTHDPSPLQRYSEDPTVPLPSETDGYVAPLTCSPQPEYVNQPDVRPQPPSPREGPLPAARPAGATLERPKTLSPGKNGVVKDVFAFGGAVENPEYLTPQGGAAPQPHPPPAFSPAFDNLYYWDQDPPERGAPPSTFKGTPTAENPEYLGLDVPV
# RUN DESCRIPTION: Detection of phosphorylated ERBB2 (pERBB2) by ELISA in BT-474 cells
# MEASUREMENT CONDITIONS: four hour incubation
READOUT LABEL: pIC50
pIC50 is defined as minus the log10 of a concentration measured in mol/L.

- ITEM SMILES: "CC#CC(=O)N1CCN2c3cc4c(Nc5ccc(Oc6ccc7c(c6)ncn7C)c(C)c5)ncnc4cc3OC[C@@H]2C1"
  pIC50: 7.08
- ITEM SMILES: "Cc1cc(Nc2ncnc3cc4c(cc23)N2CCNC[C@H]2CO4)ccc1Oc1ccn2ncnc2c1"
  pIC50: 7.57

Notebook: `Cc1cc(Nc2ncnc3cc4c(nc23)N2CCN(C)C[C@H]2CO4)ccc1Oc1ccc2c(c1)ncn2C` , pIC50 read as 7.22

Notebook: `Cc1cc(Nc2ncnc3cc4c(nc23)N2CCNC[C@H]2CO4)ccc1Oc1ccc2c(c1)ncn2C` , pIC50 read as 7.11

Notebook: `Cc1cc(Nc2ncnc3cc4c(cc23)N2CCN(C)C[C@@H]2CO4)ccc1Oc1ccn2ncnc2c1` , pIC50 read as 7.01

Notebook: `Cc1cc(Nc2ncnc3ccc4c(c23)OC[C@@H]2CN(C)CCN42)ccc1Oc1ccc2c(c1)ncn2C` , pIC50 read as 6.84

Notebook: `Cc1cc(Nc2ncnc3cc4c(nc23)N2CCN(C(=O)/C=C/CN(C)C)C[C@@H]2CO4)ccc1Oc1ccn2ncnc2c1` , pIC50 read as 8.16

* * *

Quick reference: IC50 of the listed items.
# EXPERIMENTAL SYSTEM: phosphorylated ERBB2 (pERBB2) (Homo sapiens)
# Construct: endogenous in cells
# RUN DESCRIPTION: Detection of phosphorylated ERBB2 (pERBB2) by ELISA in BT-474 cells
# MEASUREMENT CONDITIONS: four hour incubation
Write the value in nM as a bare number.

Below, each entry is followed by its recorded IC50 result.
- ITEM SMILES: "Cc1cc(Nc2ncnc3cc4c(nc23)N2CCN(C)C[C@H]2CO4)ccc1Oc1ccn2ncnc2c1"
  DATA VALUE: 52.4
- ITEM SMILES: "C=CC(=O)N1CCN2c3nc4c(Nc5ccc(Oc6ccn7ncnc7c6)c(C)c5)ncnc4cc3OC[C@H]2C1"
  DATA VALUE: 8.97
- ITEM SMILES: "Cc1cc(Nc2ncnc3ccc4c(c23)OC[C@H]2CN4CCN2C(=O)/C=C/CN(C)C)ccc1Oc1ccc2c(c1)nnn2C"
  DATA VALUE: 14.2
- ITEM SMILES: "Cc1cc(Nc2ncnc3ccc4c(c23)OC[C@H]2CN(C(=O)/C=C/CN(C)C)CCN42)ccc1Oc1ccn2ncnc2c1"
  DATA VALUE: 240

Notebook: `C=CC(=O)N1CCN2c3cc4c(Nc5ccc(Oc6ccn7ncnc7c6)c(C)c5)ncnc4cc3OC[C@@H]2C1` , IC50 read as 12.8

Notebook: `Cc1c(Oc2ccn3ncnc3c2)ccc(Nc2ncnc3cc4c(nc23)N2CCN(C)C[C@H]2CO4)c1F` , IC50 read as 98.1

Notebook: `Cc1cc(Nc2ncnc3ccc4c(c23)OC[C@H]2CCCCN42)ccc1Oc1ccn2ncnc2c1` , IC50 read as 40.7

* * *

# EXPERIMENTAL SYSTEM: phosphorylated EGFR (pEGFR) (Homo sapiens)
# Construct: performed to measure phosphorylated EGFR levels using A431 cells (10% FBS); endogenous in cells
# Sequence (P00533 25-1210): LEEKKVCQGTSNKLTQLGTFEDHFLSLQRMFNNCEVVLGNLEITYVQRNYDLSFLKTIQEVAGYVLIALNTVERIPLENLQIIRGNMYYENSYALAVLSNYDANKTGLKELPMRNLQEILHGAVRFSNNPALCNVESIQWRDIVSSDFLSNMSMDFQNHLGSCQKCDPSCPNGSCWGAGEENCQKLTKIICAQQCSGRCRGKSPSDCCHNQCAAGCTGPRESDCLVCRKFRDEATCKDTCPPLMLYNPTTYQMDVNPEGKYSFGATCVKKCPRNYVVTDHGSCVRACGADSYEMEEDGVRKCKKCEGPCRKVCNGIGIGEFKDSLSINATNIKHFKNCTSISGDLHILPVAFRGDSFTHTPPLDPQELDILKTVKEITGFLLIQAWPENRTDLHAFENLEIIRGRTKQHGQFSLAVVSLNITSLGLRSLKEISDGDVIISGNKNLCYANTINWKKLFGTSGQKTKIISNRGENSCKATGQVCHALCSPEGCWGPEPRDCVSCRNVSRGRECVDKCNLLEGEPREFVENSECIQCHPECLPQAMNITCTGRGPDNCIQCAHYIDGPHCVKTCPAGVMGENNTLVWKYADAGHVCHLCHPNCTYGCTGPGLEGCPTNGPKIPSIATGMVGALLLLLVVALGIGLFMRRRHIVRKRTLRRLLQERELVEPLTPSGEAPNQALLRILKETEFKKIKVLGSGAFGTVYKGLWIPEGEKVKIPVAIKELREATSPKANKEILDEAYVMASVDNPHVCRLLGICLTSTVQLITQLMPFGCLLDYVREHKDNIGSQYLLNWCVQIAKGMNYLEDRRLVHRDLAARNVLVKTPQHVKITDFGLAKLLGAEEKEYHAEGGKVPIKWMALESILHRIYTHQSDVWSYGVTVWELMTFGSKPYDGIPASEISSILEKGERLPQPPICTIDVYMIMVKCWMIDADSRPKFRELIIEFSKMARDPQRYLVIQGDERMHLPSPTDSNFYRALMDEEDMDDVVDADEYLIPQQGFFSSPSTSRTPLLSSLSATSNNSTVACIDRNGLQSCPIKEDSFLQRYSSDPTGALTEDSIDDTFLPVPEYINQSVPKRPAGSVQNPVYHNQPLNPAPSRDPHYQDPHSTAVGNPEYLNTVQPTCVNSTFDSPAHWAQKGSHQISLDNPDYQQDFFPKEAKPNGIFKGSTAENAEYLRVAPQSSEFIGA
# RUN DESCRIPTION: Detection of phosphorylated EGFR (pEGFR) by AlphaLISA in EGF-stimulated A431 cells
# MEASUREMENT CONDITIONS: A431 cells (10% FBS), 4 hours incubation, EGF 30 ng/mL for 10 minutes
Structures can show the parent of a compound that is named as a salt.
READOUT LABEL: IC50

Below, each entry is followed by its recorded IC50 result.
- MOLECULE: "Cc1cc(Nc2ncnc3ccc4c(c23)OC[C@@H]2CN4CCN2C(=O)/C=C/CN(C)C)ccc1Oc1ccc2c(c1)ncn2C"
  IC50: "> 10 µM"
- MOLECULE: "Cc1cc(Nc2ncnc3cc4c(nc23)N2CCN(C)C[C@@H]2CO4)ccc1Oc1ccn2ncnc2c1"
  IC50: "> 10 µM"
- MOLECULE: "Cc1cc(Nc2ncnc3cnc4c(c23)OC[C@H]2CN(C)CCN42)ccc1Oc1ccc2c(c1)ncn2C"
  IC50: "> 10 µM"
- MOLECULE: "Cc1cc(Nc2ncnc3ccc4c(c23)OC[C@@H]2CN4CCN2C)ccc1Oc1ccn2ncnc2c1"
  IC50: "> 10 µM"
- MOLECULE: "Cc1cc(Nc2ncnc3ccc4c(c23)OC[C@H]2CN(C(=O)/C=C/CN(C)C)CCN42)ccc1Oc1ccc2c(c1)ncn2C"
  IC50: "0.544 µM"
- MOLECULE: "Cc1cc(Nc2ncnc3cnc4c(c23)OC[C@H]2CN(C(=O)/C=C/CN(C)C)CCN42)c(F)cc1Oc1ccn2ncnc2c1"
  IC50: "1.51 µM"

Notebook: `Cc1cc(Nc2ncnc3ccc4c(c23)OC[C@H]2CN4CCN2C(=O)/C=C/[C@@H](C)N(C)C)c(F)cc1Oc1ccn2ncnc2c1` , IC50 read as > 10 µM

Notebook: `Cc1cc(Nc2ncnc3cc4c(nc23)N2CCN(C)C[C@H]2CO4)ccc1Oc1cc2ncn(C)c2cn1` , IC50 read as > 10 µM

Notebook: Cc1cc(Nc2ncnc3ccc4c(c23)OC[C@@H]2CN(C(=O)/C=C/CN(C)C)CCN42)ccc1Oc1ccn2ncnc2c1 [Compound 19, formate] , IC50 read as 0.679 µM

Notebook: `C=CC(=O)N1CCN2C[C@H]1COc1c2ccc2ncnc(Nc3ccc(Oc4ccn5ncnc5c4)c(C)c3)c12` , IC50 read as > 10 µM

Notebook: `Cc1cc(Nc2ncnc3cc4c(cc23)N2CCN(C)C[C@@H]2CO4)ccc1Oc1ccn2ncnc2c1` , IC50 read as > 10 µM

Notebook: `Cc1cc(Nc2ncnc3cnc4c(c23)OC[C@H]2CN4CCN2C(=O)/C=C/CN(C)C)c(F)cc1Oc1ccn2ncnc2c1` , IC50 read as 0.344 µM

Notebook: `Cc1cc(Nc2ncnc3cc4c(nc23)N2CCN(C)C[C@@H]2CO4)ccc1Oc1ccc2c(c1)ncn2C` , IC50 read as > 10 µM

Notebook: `Cc1cc(Nc2ncnc3cc4c(cc23)N2CCNC[C@@H]2CO4)ccc1Oc1ccn2ncnc2c1` , IC50 read as > 10 µM

Notebook: `Cc1cc(Nc2ncnc3cnc4c(c23)O[C@@H]2CCN(C)C[C@H]2N4C)ccc1Oc1ccc2c(c1)ncn2C` , IC50 read as > 10 µM
